molecular target: D(1A) dopamine receptor (Homo sapiens) (UniProt P21728); experiment: Antagonist of Human D 1 Dopamine Receptor: qHTS; conditions: HEK293 TREx D1 cells, calcium flux, dopamine EC80; at 10 µM; hits give low values; further: on the % scale 0 is the no-effect control and ±100 the full control effect
Sequence (P21728 whole entry, looked up): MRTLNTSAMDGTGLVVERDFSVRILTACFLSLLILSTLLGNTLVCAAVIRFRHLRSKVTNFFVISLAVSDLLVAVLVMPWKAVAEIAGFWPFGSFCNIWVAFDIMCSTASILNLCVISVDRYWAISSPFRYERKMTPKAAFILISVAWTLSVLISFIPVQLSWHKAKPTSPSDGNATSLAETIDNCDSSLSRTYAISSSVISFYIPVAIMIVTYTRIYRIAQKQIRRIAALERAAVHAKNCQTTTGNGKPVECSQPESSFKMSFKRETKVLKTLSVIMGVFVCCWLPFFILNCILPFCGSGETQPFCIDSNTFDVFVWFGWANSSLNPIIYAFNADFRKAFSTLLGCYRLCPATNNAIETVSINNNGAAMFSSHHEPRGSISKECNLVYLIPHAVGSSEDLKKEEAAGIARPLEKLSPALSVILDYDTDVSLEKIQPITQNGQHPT
Among all 360,000 compounds or so, about 11,000 (3.1%) were called active. The sample holds actives, similar compounds and a random draw of the others, so the mix is not that of the screen.
Property: activity change, negative = inhibition (%)
Entry rule: numbers only, all in %.

Solved cases (2 shown):
- Molecule: "O=C(Nc1nnc(C2CC2)s1)C1=NN(C2CCS(=O)(=O)C2)C(=O)CC1 (configuration not stated)"
  Data Value: -30.2
- Molecule: "O=C1CN(C(=O)Nc2ccccc2C(F)(F)F)C(c2ccccc2)c2c(sc3c2CCCC3)N1 (configuration not stated)"
  Data Value: -10.2

Query :: Look up and report activity change, negative = inhibition, with D(1A) dopamine receptor (Homo sapiens) (UniProt P21728) as system, for `O=C(CN1CCCCC1)Nc1ccccc1C(=O)NC1CC1`
Result :: 6.93

Query :: # return activity change, negative = inhibition for `Cc1ccc(Nc2c3c(nc4ccccc24)CCC3)cc1` , test system: D(1A) dopamine receptor (Homo sapiens) (UniProt P21728)
Result :: -39.1

Query :: Give activity change, negative = inhibition for `O=C(Nc1ccc(S(=O)(=O)N2CCCCC2)cc1)C1CCN(C(=O)c2ccc(F)cc2)CC1` tested on D(1A) dopamine receptor (Homo sapiens) (UniProt P21728).
Result :: -10.9

Query :: State, for D(1A) dopamine receptor (Homo sapiens) (UniProt P21728), measured activity change, negative = inhibition of the molecule listed here: `COC(=O)c1ccccc1NC(=O)CSc1nnnn1C`
Result :: -7.79

Query :: # return activity change, negative = inhibition for `COc1ccc(-c2noc(CSc3nc(C)cc(=O)[nH]3)n2)cc1OC` , test system: D(1A) dopamine receptor (Homo sapiens) (UniProt P21728)
Result :: 12.5
